ASSAYED SYSTEM: CDK5/p35 (Homo sapiens, UniProt Q00535)
Sequence (Q00535 whole entry): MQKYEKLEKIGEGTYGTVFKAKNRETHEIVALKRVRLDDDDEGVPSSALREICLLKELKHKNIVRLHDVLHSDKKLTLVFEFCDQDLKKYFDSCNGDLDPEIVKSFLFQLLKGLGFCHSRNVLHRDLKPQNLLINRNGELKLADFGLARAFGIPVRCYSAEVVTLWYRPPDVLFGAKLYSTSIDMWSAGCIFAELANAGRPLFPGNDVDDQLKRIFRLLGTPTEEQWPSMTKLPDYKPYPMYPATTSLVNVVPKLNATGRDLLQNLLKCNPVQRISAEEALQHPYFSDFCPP
Sequence (Q15078 whole entry partner): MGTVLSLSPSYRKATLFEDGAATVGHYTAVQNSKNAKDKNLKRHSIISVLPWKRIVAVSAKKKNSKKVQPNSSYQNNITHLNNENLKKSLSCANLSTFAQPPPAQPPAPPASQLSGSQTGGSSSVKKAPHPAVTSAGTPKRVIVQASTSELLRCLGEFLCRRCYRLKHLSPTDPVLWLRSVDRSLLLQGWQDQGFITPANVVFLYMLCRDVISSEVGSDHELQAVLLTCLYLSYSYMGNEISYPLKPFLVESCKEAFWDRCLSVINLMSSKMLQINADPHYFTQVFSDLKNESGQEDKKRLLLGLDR
PROTOCOL NOTES: EMD Millipore (Eurofins) CDK panel
MEASUREMENT SETUP: EMD Millipore screening panel, N = 1
Protocol: Therefore 4,6-pyrimidine 3 was submitted to a EMD Millipore CDK panel to assess potency across the selected CDK family members (Table 3). Modest activity was observed against several CDKs; […]. […]. page 4: CDK5/p35 (h) is incubated with 8 mM MOPS pH 7.0, 0.2 mM EDTA, 0.1 mg/mL histone H1, 10 mM Mg Acetate and […] (specific activity approx. 500 cpm/pmol, concentration as required). The reaction is initiated by the addition of the MgATP mix. […]
QUANTITY: pIC50
Numbers only, as −log10 of the molar value.

Req: // pIC50 lookup, key: CN(C)CCOc1ccc(Nc2cc(-n3cnc4ccccc43)ncn2)nc1 [Compound 3]
Resp: 6.21
